Biological target: Human BCMA (human) (UniProt Q02223)
Test: SPR, IgG immobilised, huBCMA analyte, 37 C
resultType: koff (s⁻¹)
Answers are plain numbers, in s⁻¹.

Answered cases to consult:
>  <binder>
L3.PY/L3.KY/H2.YQ (antibody, V domains shown, IgG) VH: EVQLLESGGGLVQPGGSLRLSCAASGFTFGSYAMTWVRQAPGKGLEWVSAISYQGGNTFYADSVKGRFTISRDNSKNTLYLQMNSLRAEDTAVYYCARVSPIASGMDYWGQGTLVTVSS VL: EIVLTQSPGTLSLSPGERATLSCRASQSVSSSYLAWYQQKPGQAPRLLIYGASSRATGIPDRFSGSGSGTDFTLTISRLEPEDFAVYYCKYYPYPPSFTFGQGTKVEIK

>  <resultType>
koff

>  <valueReported>
0.00165

$$$$
>  <binder>
L3.PY/L1.FF/H2.QR (antibody, V domains shown, IgG) VH: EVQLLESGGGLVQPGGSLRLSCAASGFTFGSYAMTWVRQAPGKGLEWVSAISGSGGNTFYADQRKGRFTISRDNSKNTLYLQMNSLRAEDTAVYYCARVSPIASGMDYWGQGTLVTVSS VL: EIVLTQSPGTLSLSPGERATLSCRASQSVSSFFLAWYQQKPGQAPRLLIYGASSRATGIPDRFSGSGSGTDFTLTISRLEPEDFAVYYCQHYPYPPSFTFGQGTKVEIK

>  <resultType>
koff

>  <valueReported>
0.00177

$$$$
>  <binder>
L3.PY/L3.KF/H2.YQ (antibody, V domains shown, IgG) VH: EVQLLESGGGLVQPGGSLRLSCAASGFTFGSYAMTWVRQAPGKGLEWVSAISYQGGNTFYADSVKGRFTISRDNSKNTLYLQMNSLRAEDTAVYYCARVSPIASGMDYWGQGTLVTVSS VL: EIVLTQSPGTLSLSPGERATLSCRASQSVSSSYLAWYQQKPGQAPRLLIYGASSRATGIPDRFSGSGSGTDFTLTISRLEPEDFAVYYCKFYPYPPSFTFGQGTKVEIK

>  <resultType>
koff

>  <valueReported>
0.00223

$$$$
>  <binder>
L3.PY/L3.KY/H2.HA (antibody, V domains shown, IgG) VH: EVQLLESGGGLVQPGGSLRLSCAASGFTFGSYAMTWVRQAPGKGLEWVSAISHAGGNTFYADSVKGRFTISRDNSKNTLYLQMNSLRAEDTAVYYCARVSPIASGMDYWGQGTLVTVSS VL: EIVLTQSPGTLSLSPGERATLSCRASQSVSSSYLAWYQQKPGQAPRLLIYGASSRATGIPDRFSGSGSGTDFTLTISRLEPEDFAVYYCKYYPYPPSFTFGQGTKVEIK

>  <resultType>
koff

>  <valueReported>
0.00163

$$$$

List the reported koff of each binder below.
1. L3.PY/L1.FF/H3.TAQ (antibody, V domains shown, IgG) VH: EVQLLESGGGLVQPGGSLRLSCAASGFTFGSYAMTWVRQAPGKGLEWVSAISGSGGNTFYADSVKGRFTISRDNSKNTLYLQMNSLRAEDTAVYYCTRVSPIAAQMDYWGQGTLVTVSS VL: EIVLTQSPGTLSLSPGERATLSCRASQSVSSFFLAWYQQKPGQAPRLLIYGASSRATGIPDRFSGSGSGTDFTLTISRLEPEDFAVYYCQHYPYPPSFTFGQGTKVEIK
2. L3.PY/L1.FF/H3.AE (antibody, V domains shown, IgG) VH: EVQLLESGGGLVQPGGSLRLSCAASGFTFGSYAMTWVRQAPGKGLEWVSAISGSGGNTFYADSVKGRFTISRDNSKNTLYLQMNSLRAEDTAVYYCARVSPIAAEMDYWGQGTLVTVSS VL: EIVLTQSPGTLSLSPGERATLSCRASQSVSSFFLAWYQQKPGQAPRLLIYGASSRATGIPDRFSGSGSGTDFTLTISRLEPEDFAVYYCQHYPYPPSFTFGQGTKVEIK
3. L3.PY/L1.FF/H2.LT (antibody, V domains shown, IgG) VH: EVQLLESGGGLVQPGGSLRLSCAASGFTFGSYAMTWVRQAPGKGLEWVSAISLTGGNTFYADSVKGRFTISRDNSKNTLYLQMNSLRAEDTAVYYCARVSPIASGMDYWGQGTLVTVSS VL: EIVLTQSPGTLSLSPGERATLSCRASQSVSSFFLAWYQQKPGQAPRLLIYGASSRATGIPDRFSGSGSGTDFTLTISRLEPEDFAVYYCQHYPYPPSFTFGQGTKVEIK
4. L3.PY/L3.KY/H2.QL (antibody, V domains shown, IgG) VH: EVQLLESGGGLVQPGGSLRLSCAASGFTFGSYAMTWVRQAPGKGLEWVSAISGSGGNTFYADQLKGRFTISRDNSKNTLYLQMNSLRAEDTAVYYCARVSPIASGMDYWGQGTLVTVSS VL: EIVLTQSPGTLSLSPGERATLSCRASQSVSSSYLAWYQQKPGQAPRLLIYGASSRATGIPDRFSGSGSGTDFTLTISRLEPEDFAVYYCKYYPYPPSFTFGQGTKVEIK
5. L3.PY/L3.KY/H2.QR (antibody, V domains shown, IgG) VH: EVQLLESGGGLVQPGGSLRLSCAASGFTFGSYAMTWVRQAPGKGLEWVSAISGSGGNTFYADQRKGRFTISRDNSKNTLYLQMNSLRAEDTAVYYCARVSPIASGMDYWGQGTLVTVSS VL: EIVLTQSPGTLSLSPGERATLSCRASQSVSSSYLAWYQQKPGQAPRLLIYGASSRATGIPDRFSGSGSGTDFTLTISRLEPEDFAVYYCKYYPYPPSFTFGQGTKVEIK

-- reply
[0.00189, 0.00263, 0.00167, 0.00208, 0.00099]

-- ask Give reported koff value for L3.PY/L3.KY/H3.YA (antibody, V domains shown, IgG) VH: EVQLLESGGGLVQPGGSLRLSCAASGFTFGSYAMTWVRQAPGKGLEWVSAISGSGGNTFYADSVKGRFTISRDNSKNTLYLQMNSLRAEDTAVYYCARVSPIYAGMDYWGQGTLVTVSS VL: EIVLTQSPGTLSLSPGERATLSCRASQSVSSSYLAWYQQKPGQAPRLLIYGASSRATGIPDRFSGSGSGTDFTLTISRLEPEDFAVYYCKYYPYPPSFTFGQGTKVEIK
-- reply 0.000912
